B1: SLC22A15 (parent)
chain: IAQYALLGYFIRSWRTLAILVNLQ

- Variants of: B1
- procedure details: protein stability index of a GFP-peptide fusion (GPS, HEK-293T) (PSI 1-6); higher = more stable;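 also: lentivirally expressed fusions sorted by FACS into six bins by GFP to DsRed ratio, PSI derived from sequencing read proportions per bin multiplied by bin number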
- experimental conditions: c terminus: a fixed tail appended
metric name: protein stability index
The response must contain the number and no unit.

Examples with answers:
sequence variant	protein stability index
W14N	3.47
W14H	4.19
R15Y	2.65
Q3D	2.29
R12V	2.34
F10L	3.4
L6T	4.1
Y9N	2.22

Report measured protein stability index; entry is `I19L`
2.4

Return value of protein stability index for input `L23K` , no commentary.
3.75

Could you please provide reported protein stability index for `W14L` ? Thanks!
3.89

Output measured protein stability index for this item: `Q24I`
3.51

Give the reported value of protein stability index for this record: `A2T`
3.18

Annotate the variant `L7D` with its measured protein stability index.
2.67

Return protein stability index for the following variant: `T16K`
1.98

Give protein stability index for the following variant: `A5E`
1.82

Identify protein stability index associated with the variant `I11V`
2.88
